Data origin: patent EP4803519A1

- Tested on: HCT-116 wild-type cells
- method: Inhibitory activity on proliferation of HCT-116 wild-type cells (Cell-Titer Glo)
- Assay type: cell-based
- conditionDetails: Homo sapiens, 144 h, incubated 6 d, 0-10,000 nM
observable: IC50 (nM)

# compound, numericResult
data = [
    ("CN(C(=O)c1cc2c3c(c(N)nc2cn1)COC3)C1COC(C)(C)c2cc(C(F)(F)F)ccc21 (stereo not drawn)", 7770),
    ("CN(C(=O)c1cc2c(cc1F)nc(N)c1cnn(C)c12)C1COC(C)(C)c2cc(Br)ccc21 (stereo not drawn)", 720),
    ("CN(C(=O)c1ccc2nc(N)c3cnn(C)c3c2c1)C1COC2(CCC2)c2cc(C(F)(F)F)ccc21 (stereo not drawn)", 767),
    ("CN(C(=O)c1ccc2nc(N)c3c(c2c1)CCOC3)[C@@H]1COC(C)(C)c2cc(C(F)(F)F)ccc21", 4860),
    ("CN(C(=O)c1cc2c3c(c(N)nc2cn1)COC3)C1COC2(CC2)c2cc(C(F)(F)F)ccc21 (stereo not drawn)", 2200),
]

I: CN(C(=O)c1ccc2nc(N)c3cnn(C)c3c2c1)C1COC(C)(C)c2cc(-n3cc(C(F)(F)F)cn3)ccc21 (stereo not drawn)
II: CN1CCN(c2ccc3c(c2)C(C)(C)OCC3N(C)C(=O)c2ccc3nc(N)c4cnn(C)c4c3c2)CC1 (stereo not drawn)
Of I and II , which carries the smaller reported IC50 figure? When you have decided, please share the label of that item. I

1: CN(C(=O)c1ccc2nc(N)c3cnn(C)c3c2c1)[C@@H]1COC2(CCC2)c2cc(C(F)(F)F)ncc21
2: CC1OCc2c1c(N)nc1cnc(C(=O)N(C)C3COC(C)(C)c4cc(C(F)(F)F)ccc43)cc21 (stereo not drawn)
Of 1 and 2 , which carries the smaller reported IC50 figure? When you have decided, please share the label of that item. 1
(1: 1370 nM, 2: 3080 nM)

====

- System: HCT-116 wild-type cells
- method: Inhibitory activity on proliferation of HCT-116 wild-type cells (Cell-Titer Glo)
- Format: cell-based
- conditionDetails: Homo sapiens, 144 h, incubated 6 d, 0-10,000 nM
observable: IC50 (nM)

Below, each entry is followed by its recorded IC50 result.
# compound, observable, numericResult
measured = [
    ("Cc1ncc(-c2ccc3c(c2)C(C)(C)OC[C@H]3N(C)C(=O)c2ccc3nc(N)c4cnn(C)c4c3c2)cn1", "IC50", 1620),
    ("CN(C(=O)c1ccc2nc(N)c3cnn(C)c3c2c1)[C@@H]1COC(C)(C)c2cc(-c3cncc(C(F)(F)F)c3)ccc21", "IC50", 1030),
    ("CN(C(=O)c1ccc2nc(N)c3cnn(C)c3c2c1)C1COC(C)(C)c2cc(N3CCC(F)(F)C3)ccc21 (stereo not shown)", "IC50", 2110),
    ("CN(C(=O)c1ccc2nc(N)c3cnn(C)c3c2c1)[C@@H]1COC(C)(C)c2cc(N3CC4COCC4C3)ccc21 (stereo partly shown)", "IC50", 1330),
    ("CN(C(=O)c1ccc2nc(N)c3cnn(C)c3c2c1)C1COC(C)(C)c2cc(-c3cccc4c3cnn4C)ccc21 (stereo not shown)", "IC50", 1100),
    ("CN(C(=O)c1cc2c3c(c(N)nc2cn1)COC3)[C@@H]1COC2(CCC2)c2cc(C(F)(F)F)ccc21", "IC50", 837),
    ("CN(C(=O)c1ccc2nc(N)c3cnn(C)c3c2c1)C1COC(C)(C)c2cc(C(F)(F)F)ccc21 (stereo not shown)", "IC50", 1200),
    ("CN(C(=O)c1ccc2nc(N)c3cnn(C)c3c2c1)C1COC(C)(C)c2cc(C(F)(F)F)ncc21 (stereo not shown)", "IC50", 2130),
    ("CN(C(=O)c1ccc2nc(N)c3cnn(C)c3c2c1)[C@@H]1COC(C)(C)c2cc(N3CCOCC3)ccc21", "IC50", 1340),
    ("CN(C(=O)c1ccc2nc(N)c3ncncc3c2c1)[C@@H]1COC(C)(C)c2cc(C(F)(F)F)ccc21", "IC50", 2840),
]

A: CN(C(=O)c1ccc2nc(N)c3ccsc3c2c1)C1COC(C)(C)c2cc(C(F)(F)F)ccc21 (stereo not shown)
B: CN(C(=O)c1ccc2nc(N)c3c(cnn3C)c2c1)[C@@H]1COC(C)(C)c2cc(C(F)(F)F)ccc21
Which shows the larger IC50 value: A or B ? When you have decided, please share the label of that item. A
(A: 7540 nM, B: 4370 nM)
